Answer each item with its documented Kd.
Target: T1, AXL-His (Sino Biological Inc., 6x His labels, molecular weight 47.5 Kda) (UniProt P30530-2 26-440, limits assumed)
T1 construct: Bought reagent; also called target antigen AXL-His; target antigen AXL; not shown: 6x His tag
T1 sequence (looked up): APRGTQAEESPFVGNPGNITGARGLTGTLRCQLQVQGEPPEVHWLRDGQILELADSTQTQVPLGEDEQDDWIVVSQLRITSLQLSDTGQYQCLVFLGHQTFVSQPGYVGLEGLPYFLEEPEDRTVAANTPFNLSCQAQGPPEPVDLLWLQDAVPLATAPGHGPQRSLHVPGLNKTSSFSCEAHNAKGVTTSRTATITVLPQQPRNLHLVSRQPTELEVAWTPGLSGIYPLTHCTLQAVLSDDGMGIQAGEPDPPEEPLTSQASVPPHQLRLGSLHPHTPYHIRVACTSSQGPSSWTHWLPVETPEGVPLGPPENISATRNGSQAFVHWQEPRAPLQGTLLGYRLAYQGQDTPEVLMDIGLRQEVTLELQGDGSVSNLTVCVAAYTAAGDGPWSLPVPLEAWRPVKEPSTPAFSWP
Test: SPR (Biacore T-200), antibody captured on chip, AXL-His as analyte

The following binders have reported results that may help.
| binder | measured.attribute | test.result |
| --- | --- | --- |
| antibody 6G12M11 (antibody, human IgG1, kappa, V domains shown) VH: QVQLVQSGPGLVKPSQSLSLTCAVTGFSISSGYYWNWIRQFPGQKLEWMGYRSYDGSNNYNPSLKNRISITRDTSKNQFFLKLNSVTSEDTATYYCARGWLLHYTMDYWGQGTTVTVSS VL: EIVMTQSPSSVSVTLGQSASISCRSSRSLLHSNGFTYLYWYLQKPGQSPQLLIYQMSNLASGVPDRFSGSGSGTDFTLKISRVEAEDVGVYYCGQNLELPLTFGGGTKLEIKR | Kd | 11.7 nM |
| antibody 6G12M31 (antibody, V domains shown) VH: QVQLVQSGPGLVKPSQSLSLTCSVTGFSISSGYYWNWIRQFPGQKLEWMGYRSYDGSNNYDPSLKNRISITRDTSKNQFFLKLNSVTSEDTATYYCARGWLLHYTMDYWGQGTTVTVSS VL: DIVMTQSPSSVSVTLGQSASISCRSSRSLLHSNGFTYLYWYLQKPGQSPQLLIYQMSNLASGVPDRFSGSGSGTDFTLKISRVEAEDVGVYYCGQNLELPLTFGGGTKLEIK | Kd | 29.2 nM |
| antibody 6G12M41 (antibody, V domains shown) VH: QVQLVQSGPGLVKPSQSLSLTCSVTGFSISSGYYWNWIRQFPGQKLEWMGYRSYDGSNNYGPSLKNRISITRDTSKNQFFLKLNSVTSEDTATYYCARGWLLHYTMDYWGQGTTVTVSS VL: DIVMTQSPSSVSVTLGQSASISCRSSRSLLHSNGFTYLYWYLQKPGQSPQLLIYQMSNLASGVPDRFSGSGSGTDFTLKISRVEAEDVGVYYCGQNLELPLTFGGGTKLEIK | Kd | 28.7 nM |

# next binder below
Prompt: Give the measured Kd for antibody 6G12M21 (antibody, human IgG1, kappa, V domains shown) VH: QVQLVQSGPGLVKPSQSLSLTCSVTGFSISSGYYWNWIRQFPGQKLEWMGYRSYDGSNNYNPSLKNRISITRDTSKNQFFLKLNSVTSEDTATYYCARGWLLHYTMDYWGQGTTVTVSS VL: DIVMTQSPSSVSVTLGQSASISCRSSRSLLHSNGFTYLYWYLQKPGQSPQLLIYQMSNLASGVPDRFSGSGSGTDFTLKISRVEAEDVGVYYCGQNLELPLTFGGGTKLEIKR
Response: 10.2 nM

Hey, just so you know, these numbers are from patent US20220411531A1.
